organism: Rattus norvegicus; experiment: DrugMatrix - Regimen: Daily Repeat; assay type: toxicity, organism-based, Sprague-Dawley; design: regimen Daily Repeat, gender Male, age 6-8 weeks; details: in vivo, po, 0 mg/kg, 120 h, tissue Blood, route oral GAVAGE, dose level Control, time 5 day, vehicle 100 % WATER
attribute-measured: MEAN CORPUSCULAR VOLUME (fL)
State the answer as a number, implicitly in fL.

q: Endpoint output: MEAN CORPUSCULAR VOLUME of "O=C1NC(=O)C(c2ccccc2)(c2ccccc2)N1" . Value?
a: 63.05

q: Endpoint output: MEAN CORPUSCULAR VOLUME of "NNC(=O)c1ccncc1" . Value?
a: 63.72

q: Endpoint output: MEAN CORPUSCULAR VOLUME of "Nc1ccc(S(=O)(=O)Nc2ccnn2-c2ccccc2)cc1" . Value?
a: 62.28

q: Endpoint output: MEAN CORPUSCULAR VOLUME of "CNCCC=C1c2ccccc2CCc2ccccc21" . Value?
a: 63.05

q: Endpoint output: MEAN CORPUSCULAR VOLUME of "NC(=O)c1ncn([C@@H]2O[C@H](CO)[C@@H](O)[C@H]2O)n1" . Value?
a: 62.68

q: Endpoint output: MEAN CORPUSCULAR VOLUME of "NCC1(CC(=O)O)CCCCC1" . Value?
a: 63.78

q: Endpoint output: MEAN CORPUSCULAR VOLUME of "CN1CCC[C@H]1c1cccnc1" . Value?
a: 64.35

q: Endpoint output: MEAN CORPUSCULAR VOLUME of CN1CCN(C(=O)OC2c3nccnc3C(=O)N2c2ccc(Cl)cn2)CC1 (stereo not given) . Value?
a: 63.15

q: Endpoint output: MEAN CORPUSCULAR VOLUME of CC(CCc1ccccc1)NCC(O)c1ccc(O)c(C(N)=O)c1 (stereo not given) . Value?
a: 62.55

q: Endpoint output: MEAN CORPUSCULAR VOLUME of "C[C@]12Cc3c[nH]nc3C[C@@H]1CC[C@@H]1[C@@H]2CC[C@@]2(C)[C@H]1CC[C@]2(C)O" . Value?
a: 63.12

q: Endpoint output: MEAN CORPUSCULAR VOLUME of "CC1(C)S[C@@H]2[C@H](NC(=O)[C@H](N)c3ccc(O)cc3)C(=O)N2[C@H]1C(=O)O" . Value?
a: 61.27

q: Endpoint output: MEAN CORPUSCULAR VOLUME of "Cc1cc(NS(=O)(=O)c2ccc(N)cc2)no1" . Value?
a: 62.97

q: Endpoint output: MEAN CORPUSCULAR VOLUME of "CC(C)(S)[C@@H](N)C(=O)O" . Value?
a: 63.05

q: Endpoint output: MEAN CORPUSCULAR VOLUME of COc1ccc(C(CN(C)C)C2(O)CCCCC2)cc1 (stereo not given) . Value?
a: 62.97

q: Endpoint output: MEAN CORPUSCULAR VOLUME of CC1COc2c(N3CCN(C)CC3)c(F)cc3c(=O)c(C(=O)O)cn1c23 (stereo not given) . Value?
a: 64.35

q: Endpoint output: MEAN CORPUSCULAR VOLUME of COc1cccc(C2(O)CCCCC2CN(C)C)c1 (stereo not given) . Value?
a: 63.12

q: Endpoint output: MEAN CORPUSCULAR VOLUME of "Cn1cnc([N+](=O)[O-])c1Sc1ncnc2nc[nH]c12" . Value?
a: 63.73

q: Endpoint output: MEAN CORPUSCULAR VOLUME of "Fc1ccc([C@@H]2CCNC[C@H]2COc2ccc3c(c2)OCO3)cc1" . Value?
a: 63.12

q: Endpoint output: MEAN CORPUSCULAR VOLUME of "COc1cc2c(N3CCN(C(=O)Nc4ccc(OC(C)C)cc4)CC3)ncnc2cc1OCCCN1CCCCC1" . Value?
a: 67.62

q: Endpoint output: MEAN CORPUSCULAR VOLUME of Clc1ccc(C(c2ccccc2Cl)C(Cl)Cl)cc1 (stereo not given) . Value?
a: 63.23
